Data provenance is the supplement of paper PMC11061612.

Tested on: SU-DHL-8 (B-Cell Non-Hodgkin's Lymphoma)
test_protocol: Bliss excess, mean over the matrix (fraction); higher = more synergy;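 further: after 72 h of two-drug dosing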
Record yes (1) whenever Bliss excess is at -0.02 or higher; record no (0) when lower.

Prompt line: For this compound, is measured Bliss excess -0.02 or higher? COc1nnc2ccc(N3CCC(c4ccc(OCCN5CCN(C)C(=O)[C@H]5C)cc4)CC3)nn12 [AZD5153] + C=CCn1c(=O)c2cnc(Nc3ccc(N4CCN(C)CC4)cc3)nc2n1-c1cccc(C(C)(C)O)n1 [AZD1775] (first compound max 1 µM, partner max 1 µM)
Response line: yes (1)

Prompt line: For this compound, is measured Bliss excess -0.02 or higher? Cc1c2c(nn1C)CSCc1cc(n(C)n1)CSc1cc(c3ccccc3c1)OCCCc1c(C(=O)O)n(C)c3c-2c(Cl)ccc13 [AZD5991] + Cn1cnc2c(F)c(Nc3ccc(Br)cc3Cl)c(C(=O)NOCCO)cc21 [Selumetinib] (first compound max 1 µM, 7x7, partner max 3 µM)
Response line: no (0)

Prompt line: For this compound, is measured Bliss excess -0.02 or higher? COc1cccc(OCCCN)c1-c1cc(Nc2cnc(C#N)cn2)n[nH]1 [Prexasertib] + Cc1cc2ncnn2cc1Nc1ncc2c(n1)n(C1CCOCC1)c(=O)n2C [AZD7648] (first compound max 1 µM, 7x7, partner max 10 µM)
Response line: no (0)

Prompt line: For this compound, is measured Bliss excess -0.02 or higher? COc1nnc2ccc(N3CCC(c4ccc(OCCN5CCN(C)C(=O)[C@H]5C)cc4)CC3)nn12 [AZD5153] + CCN(CCO)CCCOc1ccc2c(Nc3cc(CC(=O)Nc4cccc(F)c4)[nH]n3)ncnc2c1 [AZD2811] (first compound max 1 µM, 7x7, partner max 1 µM)
Response line: yes (1)

Prompt line: For this compound, is measured Bliss excess -0.02 or higher? CN(CCO)CC[C@H](CSc1ccccc1)Nc1ccc(S(=O)(=O)NC(=O)c2ccc(N3CCC([C@@H](O)c4ccccc4-c4ccc(Cl)cc4)CC3)cc2)cc1S(=O)(=O)C(F)(F)F [AZD4320] + C=CCn1c(=O)c2cnc(Nc3ccc(N4CCN(C)CC4)cc3)nc2n1-c1cccc(C(C)(C)O)n1 [AZD1775] (first compound max 1 µM, partner max 1 µM)
Response line: yes (1)

Prompt line: For this compound, is measured Bliss excess -0.02 or higher? Cc1cc2ncnn2cc1Nc1ncc2c(n1)n(C1CCOCC1)c(=O)n2C [AZD7648] + C=CCn1c(=O)c2cnc(Nc3ccc(N4CCN(C)CC4)cc3)nc2n1-c1cccc(C(C)(C)O)n1 [AZD1775] (first compound max 10 µM, partner max 1 µM)
Response line: yes (1)

Prompt line: For this compound, is measured Bliss excess -0.02 or higher? CC(=O)Nc1cccc(-n2c(=O)n(C3CC3)c(=O)c3c(Nc4ccc(I)cc4F)n(C)c(=O)c(C)c32)c1 [Trametinib] + Cc1nc(-c2cn3c(n2)-c2ccc(-c4cnn(C(C)(C)C(N)=O)c4)cc2OCC3)n(C(C)C)n1 [Taselisib] (first compound max 1 µM, 7x7, partner max 10 µM)
Response line: no (0)

====

Listing: Bliss excess of selected molecules
Test system: U251 (Low Grade Glioma)
test_protocol: Bliss excess, mean over the matrix (fraction); higher = more synergy
Response field accepts a number only; no unit should be typed.

Prompt line: Entry COc1cccc(OCCCN)c1-c1cc(Nc2cnc(C#N)cn2)n[nH]1 [Prexasertib] + CN(C)CCCOc1ccc(-c2ccc3ncc4c(c3c2)n(C2CCOCC2)c(=O)n4C)cn1 [AZD0156] (first compound max 1 µM, 7x7, partner max 1 µM) , system U251 (Low Grade Glioma): what Bliss excess was measured?
Response line: -0.0092

Prompt line: Entry CC1(C)CCC(CN2CCN(c3ccc(C(=O)NS(=O)(=O)c4ccc(NCC5CCOCC5)c([N+](=O)[O-])c4)c(Oc4cnc5[nH]ccc5c4)c3)CC2)=C(c2ccc(Cl)cc2)C1 [Venetoclax] + C[C@@H](Nc1cc(F)cc(F)c1)c1cc(C(=O)N(C)C)cc2c(=O)cc(N3CCOCC3)oc12 [AZD8186] (first compound max 1 µM, 7x7, partner max 3 µM) , system U251 (Low Grade Glioma): what Bliss excess was measured?
Response line: -0.0431

Prompt line: Entry CC(=O)Nc1cccc(-n2c(=O)n(C3CC3)c(=O)c3c(Nc4ccc(I)cc4F)n(C)c(=O)c(C)c32)c1 [Trametinib] + Cc1nc(-c2cn3c(n2)-c2ccc(-c4cnn(C(C)(C)C(N)=O)c4)cc2OCC3)n(C(C)C)n1 [Taselisib] (first compound max 1 µM, 7x7, partner max 10 µM) , system U251 (Low Grade Glioma): what Bliss excess was measured?
Response line: 0.132
